This collection of values is drawn from patent US12116344B2.

Experiment: Approximate solubility by incremental solvent addition with shaking/sonication
Type: physicochemical
Conditions: thermodynamic from solid; Water, about 25° C., approximate; read-out: Solubility S
Property Measured: solubility

Task: // returns reported solubility for input OC[C@H]1[C@@H](O)[C@H](O)[C@@H](O)CN1CCCCCOCc1ccc(-c2ccccc2)c(F)c1 [compound (I)]
Result: ~80 mg/mL

###

Experiment: Approximate solubility by incremental solvent addition with shaking/sonication
Format: physicochemical
Conditions: organic solvent or mixture, thermodynamic from solid; MEK, about 25° C., approximate; read-out: Solubility S
Property Measured: solubility

Task: What value of solubility has been recorded for this entry: OC[C@H]1[C@@H](O)[C@H](O)[C@@H](O)CN1CCCCCOCc1ccc(-c2ccccc2)c(F)c1 [compound (I)]
Result: 40 to 50 mg/mL

###

Assay: Brain:plasma exposure after repeat oral administration PND 11-70
Type: in vivo, mice
Details: female, NPC1 (−/−) (Balb/c background), mouse, brain and plasma, Female mice, read-out: Brain:Plasma Ratio Cmax
Experimental: 24 NPC1 (−/−) mice were treated per oral gavage with AZ-3102-00 from post-natal day 11 (P11) to post-natal-day 70 (P70). Age-matched control mice included 6 NPC (−/−) and 4 NPC (+/−) mice treated with vehicle, and 4 NPC (+/+) mice received AZ-3102-00. […] Diluted plasma and brain tissue supernatants were injected into an Agilent LC system (Agilent, USA) by an automated sample injector (SIL-30, Shimadzu, USA). […] Data were calibrated and quantified using the Analyst™ data system (AB Sciex, version 1.6.3). […]
Property Measured: Kp
Enter the number alone.

Task: Reported Kp, compound OC[C@H]1[C@@H](O)[C@H](O)[C@@H](O)CN1CCCCCOCc1ccc(-c2ccccc2)c(F)c1 [AZ-3102] : ____
Result: 0.41

###

Assay: Brain:plasma exposure after repeat oral administration PND 11-70
Assay type: in vivo, mice
Settings: male, NPC1 (−/−) (Balb/c background), mouse, brain and plasma, Male mice, read-out: Brain:Plasma Ratio AUC0-24
Property Measured: Kp

Task: Given the compound OC[C@H]1[C@@H](O)[C@H](O)[C@@H](O)CN1CCCCCOCc1ccc(-c2ccccc2)c(F)c1 [AZ-3102] , what is its reported Kp?
Result: 0.95

###

Test: Approximate solubility by incremental solvent addition with shaking/sonication
Type: physicochemical
Details: organic solvent or mixture, thermodynamic from solid; Acetic acid, about 25° C., approximate; read-out: Solubility S
Property Measured: solubility

Task: Recorded solubility for OC[C@H]1[C@@H](O)[C@H](O)[C@@H](O)CN1CCCCCOCc1ccc(-c2ccccc2)c(F)c1 , please?
Result: > 120 mg/mL

###

Assay: Approximate solubility by incremental solvent addition with shaking/sonication
Type: physicochemical
Settings: organic solvent or mixture, thermodynamic from solid; 1-Propanol, about 25° C., approximate; read-out: Solubility S
Property Measured: solubility

Task: Report solubility for OC[C@H]1[C@@H](O)[C@H](O)[C@@H](O)CN1CCCCCOCc1ccc(-c2ccccc2)c(F)c1 please.
Result: 13 to 15 mg/mL

###

Assay: Approximate solubility by incremental solvent addition with shaking/sonication
Assay type: physicochemical
Details: organic solvent or mixture, thermodynamic from solid; Ethyl acetate, about 25° C., approximate; read-out: Solubility S
Protocol: Approximate solubilities were determined by incremental addition of solvent to about 10 mg the compound and subsequent shaking and/or sonication for a short period of time. […] Compound (I) was purified using a silica gel column to remove borate esters followed by a short equilibration in acetonitrile (about 1-5 min). Solubility of purified compound (I) in acetonitrile was determined to be between 5 mg/mL and 8 mg/mL. […]
Property Measured: solubility

Task: Sample OC[C@H]1[C@@H](O)[C@H](O)[C@@H](O)CN1CCCCCOCc1ccc(-c2ccccc2)c(F)c1 [compound (I)] — what was its solubility?
Result: 12 to 13 mg/mL
